Sourced from ChEMBL document CHEMBL4028813

# study-target: UniProt Q08642
# Sequence (Q08642 whole entry): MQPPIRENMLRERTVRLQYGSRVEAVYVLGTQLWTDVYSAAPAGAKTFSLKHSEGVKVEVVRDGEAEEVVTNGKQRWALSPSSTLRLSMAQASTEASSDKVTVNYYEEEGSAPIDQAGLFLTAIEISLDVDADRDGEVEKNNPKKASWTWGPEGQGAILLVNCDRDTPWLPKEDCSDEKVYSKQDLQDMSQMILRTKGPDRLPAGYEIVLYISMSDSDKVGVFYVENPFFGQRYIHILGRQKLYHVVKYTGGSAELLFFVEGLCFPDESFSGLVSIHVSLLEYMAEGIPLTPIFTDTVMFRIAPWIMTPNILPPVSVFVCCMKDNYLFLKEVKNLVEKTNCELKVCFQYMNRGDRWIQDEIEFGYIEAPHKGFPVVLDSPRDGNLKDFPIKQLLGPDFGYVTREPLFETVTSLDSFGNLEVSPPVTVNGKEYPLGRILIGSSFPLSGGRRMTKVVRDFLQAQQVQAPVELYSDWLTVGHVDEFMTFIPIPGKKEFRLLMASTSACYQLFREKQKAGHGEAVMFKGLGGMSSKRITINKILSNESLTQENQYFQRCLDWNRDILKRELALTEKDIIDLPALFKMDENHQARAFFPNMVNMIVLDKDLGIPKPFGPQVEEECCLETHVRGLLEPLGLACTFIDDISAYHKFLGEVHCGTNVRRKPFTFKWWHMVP
# experiment-notes: Inhibition of full length recombinant mouse N-terminal GST-tagged PAD2 expressed in baculovirus infected Sf9 cells using benzoyl arginine ethyl ester as substrate preincubated for 30 mins followed by substrate addition measured after 30 mins by colorimetric assay
pKi: −log10 of the molar value.

>  <smiles>
CC1(C)NC(=O)N(CCn2ccnc2)C1=O

>  <pKi>
2.34

$$$$
>  <smiles>
CC1(C)NC(=O)N(CCc2nnn[nH]2)C1=O

>  <pKi>
4.52

$$$$
>  <smiles>
CC1(C)NC(=O)N(CN2CCNCC2)C1=O

>  <pKi>
3.75

$$$$
>  <smiles>
CC1(C)NC(=O)N(CCN2CCNCC2)C1=O

>  <pKi>
3.15

$$$$
